# study-target: human glucagon receptor (human) (UniProt P47871)
# Sequence (P47871 26-477): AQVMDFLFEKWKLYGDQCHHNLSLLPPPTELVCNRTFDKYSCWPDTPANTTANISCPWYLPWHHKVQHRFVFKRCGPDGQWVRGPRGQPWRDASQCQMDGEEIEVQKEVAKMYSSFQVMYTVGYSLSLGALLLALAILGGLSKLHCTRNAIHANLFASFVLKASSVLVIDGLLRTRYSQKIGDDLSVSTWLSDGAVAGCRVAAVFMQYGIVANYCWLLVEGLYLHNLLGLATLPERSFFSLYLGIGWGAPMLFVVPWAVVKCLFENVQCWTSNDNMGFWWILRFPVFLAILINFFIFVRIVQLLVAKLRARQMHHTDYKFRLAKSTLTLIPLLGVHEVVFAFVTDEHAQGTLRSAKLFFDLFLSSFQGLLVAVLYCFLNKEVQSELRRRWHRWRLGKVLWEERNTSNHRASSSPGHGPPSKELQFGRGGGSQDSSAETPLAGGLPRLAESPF
# assay-details: cell-based or functional assay
Non-standard residues stand in square brackets, D forms with d. No end group written: not given here. αMePhe(2-F) = C[C@](N)(Cc1ccccc1F)C(=O)O; Aib = CC(C)(N)C(=O)O
For each entry below, report its Relative cAMP EC50 value.
Value expressed in nM; do not type the unit.

Q: Param item = YXQGTFTSDXXQXLDXKAQXQFIEXLIAXGPSSGAPPPSGGGE (not fully specified; non-natural residues; Lys acylated with γGlu-C18 diacid; C-terminal amide; synthetic construct; SITE 2: note = 2-Aminoisobutyric Acid; SITE 10: note = 3-(4-Pyridyl)-L-alanine; SITE 11: note = alpha-methyl-L-serine; SITE 13: note = alpha-methyl-leucine; SITE 16: note = L-ornithine; SITE 17: note = Lysine is chemically modified through conjugation of the epsilon-amino group) [Example 1185] ; retrieve measured Relative cAMP EC50.
A: 1.64

Q: Param item = YXQGTXTSDXXIXLDXKAQXQFIEXLQEGGPSSGEPPPEGTGE (synthetic construct; SITE 2: note = 2-Aminoisobutyric Acid; SITE 6: note = alpha-methyl-2-fluoro-L-phenylalanine; SITE 10: note = 3-(4-Pyridyl)-L-alanine; SITE 11: note = alpha-methyl-L-serine; SITE 13: note = alpha-methyl-leucine; SITE 16: note = L-ornithine; SITE 17: note = Lysine is chemically mo) [Example 529] ; retrieve measured Relative cAMP EC50.
A: 6.59

Q: Param item = YXQGTFTSDXXQXLDXKAQXQFIEXLIEXGPSSGAPPPSGGGE (not fully specified; acylated lysine γGlu-C18 diacid; non-natural residues; C-terminal amide; synthetic construct; SITE 2: note = 2-Aminoisobutyric Acid; SITE 10: note = 3-(4-Pyridyl)-L-alanine; SITE 11: note = alpha-methyl-L-serine; SITE 13: note = alpha-methyl-leucine; SITE 16: note = L-ornithine; SITE 17: note = Lysine is chemically modified through conjugation of the epsilon-amino group) [Example 1187] ; retrieve measured Relative cAMP EC50.
A: 1.81

Q: Param item = YXQGTFTSDXSQXLDKKAQXAFIEXLLEGGPSSGAPPPSGSEE (synthetic construct; SITE 2: note = 2-Aminoisobutyric Acid; SITE 10: note = 3-(4-Pyridyl)-L-alanine; SITE 13: note = alpha-methyl-leucine; SITE 17: note = Lysine is chemically modified through conjugation of the epsilon-amino group of the Lysine side chain with (gamma-Glu)2-CO-(CH2)16-CO2H; SITE 20:) [Example 945] ; retrieve measured Relative cAMP EC50.
A: 18

Q: Param item = YXQGTFTSDFSXXLDKKAQXAFIEYLLEXGPSSGAPPPSEG (synthetic construct; SITE 2: note = 2-Aminoisobutyric Acid; SITE 12: note = L-ornithine; SITE 13: note = alpha-methyl-leucine; SITE 17: note = Lysine is chemically modified through conjugation of the epsilon-amino group of the Lysine side chain with (2-[2-(2-Amino-ethoxy)-ethoxy]-acetyl)-(gamma-Glu)) [Example 61] ; retrieve measured Relative cAMP EC50.
A: 3.57

Q: Param item = Y[Aib]QGT[αMePhe(2-F)]TSDYSKLLDKIAQKAFIQYLIEGGPSSGEPPPSEG-NH2 (not fully specified (residue 20)) [Example 338] ; retrieve measured Relative cAMP EC50.
A: 4.02

The origin of these recorded values is patent US20240270821A1.
